- assayed.target: T1, Glutathione S-transferase (GST)-tagged AITR (human, UniProt Q9Y5U5 26-139)
- T1 construct: also called GST-AITR antigen; GST-AITR analyte; not shown: Glutathione S-transferase (GST) tag
- T1 sequence (looked up): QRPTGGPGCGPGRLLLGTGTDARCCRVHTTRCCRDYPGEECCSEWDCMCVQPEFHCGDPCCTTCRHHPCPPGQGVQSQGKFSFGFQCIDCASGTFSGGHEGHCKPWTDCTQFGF
- protocol.notes: SPR, Fab against the AITR antigen
readout.name: Ka (M⁻¹)
Kindly answer with a numeric value in M⁻¹, unit omitted.

>  <binder>
IRTCA-A14 (Clone H2F8) Fab (Fab, V domains shown) VH: QVQLVQSGTQVKMPGASVKVSCKASGYTFDDYGIGWVRQAPGQGLEWMGWISPYTHRTNSSPKLQDRVTMTTDTSTSTAYMELRSLRSDDTAVYYCARDGTYYDFWSGYFDTAAFDIWGQGTLVTVSS VL: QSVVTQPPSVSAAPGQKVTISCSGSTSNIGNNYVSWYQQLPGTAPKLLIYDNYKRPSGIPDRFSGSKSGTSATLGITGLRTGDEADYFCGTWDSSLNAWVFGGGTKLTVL

>  <Ka, M⁻¹>
2.64e+08

$$$$
>  <binder>
IRTCA-A1 (Clone L1E9) Fab (Fab, V domains shown) VH: QVQLVQSGTQVKMPGASVKVSCKASGYTFDDYGIGWVRQAPGQGLEWMGWISPYTHRTNSSPKLQDRVTMTTDTSTSTAYMELRSLRSDDTAVYYCARDGTYYDFWSGYFDNGAFDIWGQGTLVTVSS VL: QSVVTQPPSVSAAPGQKVTISCSGSTSNIGNNYVSWYQQLPGTAPKLLIYDNYKRPSGIPDRFSGSKSGTSATLGITGLRTGDEADYFCGSWESGSNAYKFGGGTKLTVL

>  <Ka, M⁻¹>
7.18e+07

$$$$

Problem: Name the recorded Ka for IRTCA-A15 (Clone H1F1) Fab (Fab, V domains shown) VH: QVQLVQSGTQVKMPGASVKVSCKASGYTFDDYGIGWVRQAPGQGLEWMGWISPYTHRTNSSPKLQDRVTMTTDTSTSTAYMELRSLRSDDTAVYYCARDGTYYDFWSGYFDNNAFDIWGQGTLVTVSS VL: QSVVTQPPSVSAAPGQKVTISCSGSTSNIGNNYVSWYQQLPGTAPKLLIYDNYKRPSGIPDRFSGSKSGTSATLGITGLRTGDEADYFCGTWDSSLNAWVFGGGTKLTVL .
Result: 3.9e+08
